Data provenance: ChEMBL document CHEMBL2157953

Assay: Oral bioavailability in rat at 2.5 mg/kg
Assay type: ADME, organism-based
Details: in vivo
ATTRIBUTE_MEASURED: bioavailability

{"columns": ["QUERY_SMILES", "REPORTED_MEASUREMENT"],
 "data": [
  ["Cc1cc(-c2ccsc2)nnc1N1CCN(c2ncccn2)CC1", "17.4%"]
]}

----------
IC50 by entry:
Tested on: BV-2
Assay: Antineuroinflammatory activity in mouse BV2 cells assessed as inhibition of LPS-induced IL-1beta production after 16 hrs by ELISA
Type: functional, cell-based
Settings: BV-2, 16 h

{"columns": ["QUERY_SMILES", "ASSAYED_TARGET", "QUAL", "IC50 (µM)"],
 "data": [
  ["Cc1cc(-c2cc3ccccc3s2)nnc1N1CCN(c2ncccn2)CC1", "BV-2", "=", 24.9],
  ["Cc1cc(C)c(N2CCN(c3ncccn3)CC2)nn1", "BV-2", ">", 100],
  ["Cc1cc(-c2cncnc2)nnc1N1CCN(c2ncccn2)CC1", "BV-2", ">", 100],
  ["Cc1cc(-c2cccc(F)c2)nnc1N1CCN(c2ncccn2)CC1", "BV-2", "=", 33.5],
  ["Cc1cc(-c2ccc(F)cc2)nnc1N1CCN(c2ncccn2)CC1", "BV-2", "=", 76.3],
  ["Cc1cc(-c2ccncc2)nnc1N1CCN(c2ncccn2)CC1", "BV-2", ">", 100],
  ["Cc1cc(-c2ccc3[nH]ccc3c2)nnc1N1CCN(c2ncccn2)CC1", "BV-2", "=", 85.1],
  ["COc1ncc(-c2cc(C)c(N3CCN(c4ncccn4)CC3)nn2)c(OC)n1", "BV-2", ">", 100],
  ["Cc1cc(-c2ccsc2)nnc1N1CCN(c2ncccn2)CC1", "BV-2", "=", 2.4],
  ["Cc1ccc(-c2cc(C)c(N3CCN(c4ncccn4)CC3)nn2)cc1", "BV-2", "=", 17.2],
  ["Cc1ccnnc1N1CCN(c2ncccn2)CC1", "BV-2", ">", 100],
  ["Cc1cc(C(C)C)nnc1N1CCN(c2ncccn2)CC1", "BV-2", ">", 100],
  ["COc1cccc(-c2cc(C)c(N3CCN(c4ncccn4)CC3)nn2)c1", "BV-2", "=", 2.6],
  ["Cc1cc(-c2ccccc2)nnc1N1CCN(c2ncccn2)CC1", "BV-2", "=", 11.4],
  ["Cc1cc(-c2cccnc2)nnc1N1CCN(c2ncccn2)CC1", "BV-2", ">", 100],
  ["Cc1cc(-c2ccnc3ccccc23)nnc1N1CCN(c2ncccn2)CC1", "BV-2", "=", 66.5],
  ["COc1ccc(-c2cc(C)c(N3CCN(c4ncccn4)CC3)nn2)cc1", "BV-2", "=", 5.2],
  ["Cc1cc(Cl)nnc1N1CCN(c2ncccn2)CC1", "BV-2", ">", 100],
  ["Cc1cc(-c2ccc(C(F)(F)F)cc2)nnc1N1CCN(c2ncccn2)CC1", "BV-2", "=", 37.4]
]}
